- tgt: T1, Recombinant USP7-TRAF protein (human, UniProt Q93009 1-208)
- T1 construct: also called USP7-TRAF domain
- assay: SPR
- experimental-conditions: both partners purified
value-type: pKd
The meaning of pKd here: minus log10 of the concentration in molar units.

For the binder Ac-VNQSASQSSN-NH2 (also called peptide p8; human-derived p8) [p8] , what pKd is on record?
5.50
